TARGET SYSTEM: Neprilysin (Oryctolagus cuniculus)
Sequence (P08049 whole entry): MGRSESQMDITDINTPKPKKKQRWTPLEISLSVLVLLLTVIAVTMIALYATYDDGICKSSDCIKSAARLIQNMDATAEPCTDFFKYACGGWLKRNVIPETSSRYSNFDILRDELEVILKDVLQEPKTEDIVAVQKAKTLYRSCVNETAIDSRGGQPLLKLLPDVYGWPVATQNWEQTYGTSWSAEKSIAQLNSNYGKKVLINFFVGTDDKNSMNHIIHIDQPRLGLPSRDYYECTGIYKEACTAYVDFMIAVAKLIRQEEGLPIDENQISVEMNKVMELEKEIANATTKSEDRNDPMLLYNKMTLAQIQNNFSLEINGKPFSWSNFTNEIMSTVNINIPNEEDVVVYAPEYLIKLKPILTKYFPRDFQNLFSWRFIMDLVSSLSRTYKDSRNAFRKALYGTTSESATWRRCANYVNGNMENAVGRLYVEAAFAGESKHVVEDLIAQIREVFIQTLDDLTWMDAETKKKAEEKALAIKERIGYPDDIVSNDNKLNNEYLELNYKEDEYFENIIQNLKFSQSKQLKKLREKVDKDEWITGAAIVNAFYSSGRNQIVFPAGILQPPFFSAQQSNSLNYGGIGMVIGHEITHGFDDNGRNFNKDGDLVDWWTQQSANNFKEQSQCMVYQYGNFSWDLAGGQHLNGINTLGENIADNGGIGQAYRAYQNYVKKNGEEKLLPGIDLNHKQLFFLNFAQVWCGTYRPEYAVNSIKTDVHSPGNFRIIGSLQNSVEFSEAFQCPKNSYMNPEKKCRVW
pIC50: −log10 of the molar value.
MEASUREMENT KIND: pIC50

O=C(O)CCNC(=O)[C@H](Cc1ccccc1)N[C@@H](Cc1ccccc1)C(=O)O = 7.70
O=C(O)[C@H](CCc1ccccc1)N[C@@H](Cc1ccccc1)C(=O)NC[C@H](O)C(=O)O (stereo in doubt; 6d) = 7.96
O=C(O)CCNC(=O)[C@H](Cc1ccccc1)N[C@@H](CCc1ccccc1)C(=O)O = 7.80

----------
TARGET SYSTEM: Natriuretic peptides A (Rattus norvegicus) (UniProt P01161)
Sequence (whole entry): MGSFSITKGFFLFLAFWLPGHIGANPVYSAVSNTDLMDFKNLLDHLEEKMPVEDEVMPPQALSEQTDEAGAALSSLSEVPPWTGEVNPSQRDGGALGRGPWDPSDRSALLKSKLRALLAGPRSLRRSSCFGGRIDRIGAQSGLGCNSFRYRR
MEASUREMENT DESCRIPTION: Compound was administered subcutaneously to spontaneously hypertensive rats (SHR) and evaluated for the ability to potentiate atrial natriuretic factor (ANF)
MEASUREMENT KIND: Delta blood pressure (mmHg)
# value in mmHg; strip the unit string

Example results:
O=C(O)[C@H](CCc1ccccc1)N[C@@H](Cc1ccccc1)C(=O)NC[C@H](O)C(=O)O (stereo in doubt; 6e) = 35
O=C(O)[C@H](O)CNC(=O)[C@H](Cc1ccccc1)N[C@@H](CCc1ccccc1)C(=O)O = 28
O=C(O)[C@H](Cc1ccccc1)N[C@@H](Cc1ccccc1)C(=O)NC[C@H](O)C(=O)O = 17

// returns reported Delta blood pressure for input O=C(O)[C@H](CCc1ccccc1)N[C@@H](Cc1ccccc1)C(=O)NC[C@H](O)C(=O)O (stereo in doubt; 6d)
25

For the compound `O=C(O)CCNC(=O)[C@H](Cc1ccccc1)N[C@@H](Cc1ccccc1)C(=O)O` , what Delta blood pressure is on record?
20

Fill in: Delta blood pressure of `O=C(O)CCNC(=O)[C@H](Cc1ccccc1)N[C@@H](CCc1ccccc1)C(=O)O` is ___
17

----------
TARGET SYSTEM: Angiotensin-converting enzyme (Rattus norvegicus, UniProt P47820)
Sequence (P47820 whole entry): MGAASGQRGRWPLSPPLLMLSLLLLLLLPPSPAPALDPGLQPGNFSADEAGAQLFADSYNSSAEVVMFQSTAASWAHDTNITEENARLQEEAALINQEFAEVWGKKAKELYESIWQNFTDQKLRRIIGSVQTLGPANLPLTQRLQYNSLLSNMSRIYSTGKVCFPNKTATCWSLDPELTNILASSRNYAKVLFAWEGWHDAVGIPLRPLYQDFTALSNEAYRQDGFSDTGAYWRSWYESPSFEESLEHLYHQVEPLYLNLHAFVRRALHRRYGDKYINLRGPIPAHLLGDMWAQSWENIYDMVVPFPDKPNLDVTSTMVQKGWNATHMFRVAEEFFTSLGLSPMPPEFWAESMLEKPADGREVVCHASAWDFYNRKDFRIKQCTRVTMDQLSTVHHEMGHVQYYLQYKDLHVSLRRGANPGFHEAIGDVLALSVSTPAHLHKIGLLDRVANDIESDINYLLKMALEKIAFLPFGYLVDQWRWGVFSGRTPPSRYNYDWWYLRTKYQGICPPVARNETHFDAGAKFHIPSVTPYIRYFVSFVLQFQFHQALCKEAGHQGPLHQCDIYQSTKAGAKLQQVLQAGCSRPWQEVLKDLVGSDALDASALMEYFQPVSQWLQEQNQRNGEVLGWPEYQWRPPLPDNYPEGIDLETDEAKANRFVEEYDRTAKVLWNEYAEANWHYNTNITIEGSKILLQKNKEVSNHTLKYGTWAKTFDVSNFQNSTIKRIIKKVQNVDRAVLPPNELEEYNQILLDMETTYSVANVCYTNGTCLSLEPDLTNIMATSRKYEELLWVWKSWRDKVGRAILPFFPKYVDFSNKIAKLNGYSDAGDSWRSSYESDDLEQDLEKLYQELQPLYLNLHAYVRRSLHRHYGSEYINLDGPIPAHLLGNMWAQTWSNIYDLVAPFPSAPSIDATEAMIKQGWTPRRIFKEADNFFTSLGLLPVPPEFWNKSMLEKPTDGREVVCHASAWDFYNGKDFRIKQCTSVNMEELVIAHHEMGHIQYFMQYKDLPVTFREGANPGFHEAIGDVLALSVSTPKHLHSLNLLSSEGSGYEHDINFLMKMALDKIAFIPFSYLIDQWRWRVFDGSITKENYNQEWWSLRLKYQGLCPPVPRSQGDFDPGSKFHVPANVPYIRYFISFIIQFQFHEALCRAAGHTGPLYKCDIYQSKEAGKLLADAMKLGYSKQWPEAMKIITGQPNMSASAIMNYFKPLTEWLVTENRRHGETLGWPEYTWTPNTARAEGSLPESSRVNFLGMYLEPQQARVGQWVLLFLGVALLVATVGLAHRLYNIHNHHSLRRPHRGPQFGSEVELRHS
pIC50: −log10 of the molar value.
Each item that follows carries a reported pIC50.

Worked examples, 2 compounds total:
O=C(O)[C@H](CCc1ccccc1)N[C@@H](Cc1ccccc1)C(=O)NC[C@H](O)C(=O)O (stereo in doubt; 6d) = < 6.00
O=C(O)[C@H](CCc1ccccc1)N[C@@H](Cc1ccccc1)C(=O)NC[C@H](O)C(=O)O (stereo in doubt; 6e) = < 6.00

Now let's try a different one.
What value of pIC50 has been recorded for this entry: `O=C(O)[C@H](O)CNC(=O)[C@H](Cc1ccccc1)N[C@@H](CCc1ccccc1)C(=O)O`
6.19
